# Test system: colorectal tissue transcripts
# test-details: SAGE of normal, adenoma and cancer colorectal tissue (transcript tag counts)
# Parameters: species or system human
# run-parameters: SAGE library NC1
# Method: In an effort to identify potential molecular markers of early colorectal tumors, we have here analyzed gene expression in benign and malignant colorectal tumors in an unbiased and comprehensive fashion. […] The abundance of each tag provides a quantitative measure of the transcript level present within the mRNA population studied. […] For the current study, SAGE libraries derived from two samples of normal colonic epithelium, two colorectal adenomas, and two colorectal cancers were analyzed. […]
Labels assigned by NC1 (SAGE tag count) range: zone 1 (below 10), zone 2 (10 to below 40), zone 3 (40 or more)

Ask: Which band does GCTGGCACAT (chemistry not fully specified) fall in?
Result: zone 2

Ask: Entry ACAATTGGTC (chemistry not fully specified) please
Result: zone 1

Ask: Entry CCGCTGCACT (chemistry not fully specified) please
Result: zone 3

Ask: Entry CCCCCGCGGA (chemistry not fully specified) please
Result: zone 2

Ask: Entry CCCGCCTCTT (chemistry not fully specified) please
Result: zone 1

Ask: Entry GACCAGTGGC (chemistry not fully specified) please
Result: zone 2

Ask: Entry AAGAAGCAGG (chemistry not fully specified; the letters are possibly those of the target site) please
Result: zone 1

Ask: Entry GCCTGGCCAT (chemistry not fully specified) please
Result: zone 2

Ask: Entry GGAGGCGCTC (chemistry not fully specified) please
Result: zone 1

Ask: Entry CTTATGGTCC (chemistry not fully specified) please
Result: zone 2

Ask: Entry CCCTCCCGAA (chemistry not fully specified) please
Result: zone 3

Ask: Entry CTGGCCCTCG (chemistry not fully specified) please
Result: zone 3

Ask: Entry GTGGGGGCGC (chemistry not fully specified) please
Result: zone 1

Ask: Entry GCTGGCCCCG (chemistry not fully specified) please
Result: zone 1

Ask: Entry GCTTGGGGAT (chemistry not fully specified) please
Result: zone 2

Ask: Entry GCAGGGCCTC (chemistry not fully specified) please
Result: zone 3

Ask: Entry CATAGGTTTA (chemistry not fully specified) please
Result: zone 3

Ask: Entry CTTGATTCCC (chemistry not fully specified) please
Result: zone 2

Ask: Entry CTGTACTTGT (chemistry not fully specified) please
Result: zone 1

Ask: Entry GGAACTGTGA (chemistry not fully specified) please
Result: zone 3

Ask: Entry CACCCCTGAT (chemistry not fully specified) please
Result: zone 3

Ask: Entry CCTGGAAGAG (chemistry not fully specified) please
Result: zone 2

###

Kindly state NC2 (SAGE tag count) for each of the entries shown.
# Tested on: colorectal tissue transcripts
# test-details: SAGE of normal, adenoma and cancer colorectal tissue (transcript tag counts)
# Parameters: species or system human
# run-parameters: SAGE library NC2
Answer with the value's number alone.

Ask: # input sequence: GGCTGGGCCT (chemistry not fully specified) ; wanted: its NC2 (SAGE tag count)
Result: 25

Ask: Entry CCCAACGCGC (chemistry not fully specified) please
Result: 1

Ask: Entry CTTGACATAC (chemistry not fully specified) please
Result: 20

Ask: Entry AATAGTTTCC (chemistry not fully specified) please
Result: 16

Ask: Entry CCGGCTTGAG (chemistry not fully specified) please
Result: 4

Ask: Entry GGCACCGTGC (chemistry not fully specified) please
Result: 44

Ask: Entry GGGACGAGTG (chemistry not fully specified) please
Result: 6

Ask: Entry GACGCGGCGC (chemistry not fully specified) please
Result: 47

Ask: Entry GTGGTTCACG (chemistry not fully specified) please
Result: 5

Ask: Entry GCGAAACTCG (chemistry not fully specified) please
Result: 9

Ask: Entry AAGAAAGCTC (chemistry not fully specified) please
Result: 6

Ask: Entry GCCATCCTCC (chemistry not fully specified) please
Result: 13

Ask: Entry ATGGTCTACG (chemistry not fully specified) please
Result: 5

Ask: Entry GTATTGGGGC (chemistry not fully specified) please
Result: 7

Ask: Entry GTGCCTGAGA (chemistry not fully specified) please
Result: 15

Ask: Entry GAGAGCTCCC (chemistry not fully specified) please
Result: 11

Ask: Entry ATCGTGGCGG (chemistry not fully specified) please
Result: 92

Ask: Entry GCCCAGGTCA (chemistry not fully specified) please
Result: 447

Ask: Entry CTGGCCCTCG (chemistry not fully specified) please
Result: 52

Ask: Entry GCTGGCCCCG (chemistry not fully specified) please
Result: 11

Ask: Entry GCCCACACAG (chemistry not fully specified) please
Result: 0

Ask: Entry CGCTGTGGGG (chemistry not fully specified) please
Result: 53

Ask: Entry CCATTCCACT (chemistry not fully specified) please
Result: 1

###

# Test system: colorectal tissue transcripts
# test-details: SAGE of normal, adenoma and cancer colorectal tissue (transcript tag counts)
# Design: species or system human
# run-parameters: cancer library 1
Kindly state CA1 (SAGE tag count) for each of the entries shown.

Ask: # input sequence: GTGTTGGGGG (chemistry not fully specified) ; wanted: its CA1 (SAGE tag count)
Result: 1

Ask: Entry TTTGGTTTCA (chemistry not fully specified) please
Result: 0

Ask: Entry TCAGAGCGCT (chemistry not fully specified) please
Result: 0

Ask: Entry TTTCCTCTCA (chemistry not fully specified) please
Result: 4

Ask: Entry TGGCCATCTG (chemistry not fully specified) please
Result: 3

Ask: Entry TGCCGCCCGC (chemistry not fully specified) please
Result: 1

Ask: Entry TCGGAGCTGT (chemistry not fully specified) please
Result: 3

Ask: Entry TAATTTGCAT (chemistry not fully specified) please
Result: 2

Ask: Entry TTCTGGTGCG (chemistry not fully specified) please
Result: 1

Ask: Entry GTGGTTCACG (chemistry not fully specified) please
Result: 0

Ask: Entry TCACAGTGCC (chemistry not fully specified) please
Result: 3

Ask: Entry TTTTCTGCAT (chemistry not fully specified) please
Result: 1

Ask: Entry TGACTAATTG (chemistry not fully specified) please
Result: 0

Ask: Entry TGCAGCACGA (chemistry not fully specified) please
Result: 24

Ask: Entry GTTTAGAGGG (chemistry not fully specified) please
Result: 2
